biological target: Mu-type opioid receptor (Cavia porcellus)
Sequence (P97266 whole entry): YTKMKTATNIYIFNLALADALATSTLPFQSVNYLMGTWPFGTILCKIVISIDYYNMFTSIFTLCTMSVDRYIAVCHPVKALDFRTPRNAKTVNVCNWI
assay-metric: Ki (nM)
# output: bare number, implied unit nM

Asked: Name the reported Ki value associated with the compound `O=C1c2ccccc2N[C@@]12C[C@]13CCN(CC4CC4)[C@H](Cc4ccc(O)cc41)[C@]3(O)C2`
Given back: 0.75

----------
target: Kappa-type opioid receptor (Cavia porcellus)
Sequence (P41144 whole entry): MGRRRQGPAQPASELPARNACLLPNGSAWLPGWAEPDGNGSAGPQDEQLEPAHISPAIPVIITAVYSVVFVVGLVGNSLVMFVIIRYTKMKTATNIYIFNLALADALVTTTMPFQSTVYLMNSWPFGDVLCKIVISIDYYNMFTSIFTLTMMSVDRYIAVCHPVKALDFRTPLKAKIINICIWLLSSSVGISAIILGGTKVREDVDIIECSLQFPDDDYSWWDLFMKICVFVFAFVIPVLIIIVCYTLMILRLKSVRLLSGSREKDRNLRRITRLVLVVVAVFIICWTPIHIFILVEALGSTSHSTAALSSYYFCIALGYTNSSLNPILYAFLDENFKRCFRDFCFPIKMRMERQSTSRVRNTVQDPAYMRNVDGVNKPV
assay-metric: Ki

Asked: Record request: Ki value, item `O=C1c2ccccc2N[C@@]12C[C@]13CCN(CC4CC4)[C@H](Cc4ccc(O)cc41)[C@]3(O)C2`
Given back: 13.4 nM
